The values you see were collected from PubChem BioAssay (NCI).

- Tested on: HCT-116 colon
- test summary: NCI-60 one-dose screen, 48 h (100 = growth as untreated, 0 = no growth, -100 = all killed)
- details: 10 µM unless noted
About 83,000 compounds went through this panel and 20% of them were active in at least one assay; those are over-represented in the sample as a whole.
Just a reminder that ties go to false (0): only growth strictly below 40% counts as true (1).

Example entries begin here.
compound | test system | qualitative label
C=C(C)[C@@H]1CC[C@]2(COC(C)=O)CC[C@]3(C)[C@H](CC[C@@H]4[C@@]5(C)CCCN(C(C)=O)C(C)(C)[C@@H]5CC[C@]43C)[C@@H]12 | HCT-116 colon | true (1)
O=c1cc(-c2ccccc2)[nH]c2ncc(-c3ccc(F)cc3)n12 | HCT-116 colon | false (0)
COc1cc2c(c(OC)c1OC)C(=O)CC(c1cccc(NC(=O)c3ccc(C#N)cc3)c1)O2 (stereo not given) | HCT-116 colon | false (0)
COc1cc(-c2nc3cc(Cl)c(Cl)cc3[nH]2)ccc1OCC(=O)N=Nc1c(O)[nH]c2ccc(Cl)cc12 | HCT-116 colon | true (1)
CN(C)CCCNC(=O)c1cncnc1Nc1ccc(OCc2cccc(F)c2)c(Cl)c1 | HCT-116 colon | true (1)
COc1cc(OC)cc(-c2ccc(-c3ccc(C(=N)N)o3)o2)c1 | HCT-116 colon | true (1)
C[n+]1ccc(CCc2c[nH]c3ccccc23)cc1 | HCT-116 colon | false (0)
COc1ccc(/C=C/C(=O)c2ccc(NC(=O)CSc3nc4c([nH]3)c(=O)n(C)c(=O)n4C)cc2)cc1OC | HCT-116 colon | false (0)
CCN(CC)CCCOc1ccc2ncnc(Nc3ccc(Oc4cccc(C(F)(F)F)c4)c(Cl)c3)c2c1 | HCT-116 colon | true (1)
CSc1nn2c(-c3ccc4ccccc4c3)ccnc2c1C#N | HCT-116 colon | true (1)

Q: Please state whether growth is below 40% for N#CC1CCc2c(c(-c3ccc4nc(N)sc4c3)nc3ccc4[nH]ncc4c23)C1 (stereo not given)
Result: true (1)

Q: Say whether its growth is strictly beneath 40%. Entry: CCN1C(=O)N(CC)C2C1N=C(SCc1ccc(Cl)cc1)N2/N=C/C=C/c1ccccc1OC (stereo not given)
Result: true (1)

Q: Does the reported growth of `CS(=O)(=O)c1nnc(-c2ccccc2)s1` stay below 40%?
Result: false (0)

====

- System: MDA-MB-435 melanoma
- test summary: NCI-60 one-dose screen, 48 h
- details: 10 µM unless noted
Compounds without any hit were thinned out: in the full panel of roughly 83,000, 20% have a hit. Calls of active or inactive are those of the source. How the source made its calls: active means growth percent below 10; inactive means the rest.
Permitted responses: YES (active), NO (inactive)

# example entries with known answers
molecule | qualitative label
CO[C@H]1CC(=O)n2c3ccccc3c3c4c(c5c6ccccc6n1c5c32)C(=O)NC4=O | NO
COc1ccc(C(=O)/C=C/c2ccc(Cl)cc2)cc1S(=O)(=O)Nc1c(N)nc(SC)[nH]c1=O | NO
CCCCCCCC/C=C\CCCCCCCCOc1ccc(CC(=O)NCC[N+]2(C)CCOCC2)cc1 | NO

Q: Field: outcome | Entry: `C=C(C)[C@@H]1CCC[C@]2(C(=O)O)CC[C@]3(C)[C@@H](CC[C@@H]4[C@@]5(C)C/C(=C/c6ccncc6)C(=O)C(C)(C)[C@@H]5CC[C@]43C)[C@@H]12`
Result: NO

Q: Check the results log: what was the call for `O=C(CSc1nnc(-c2cc(-c3ccccc3)nc3ccccc23)n1-c1ccccc1)Nc1ccc(C(=O)/C=C/c2ccc(Cl)cc2)cc1` ?
Result: NO

Q: Just curious, what result did `C[n+]1ccc(CCc2c[nH]c3ccccc23)cc1` get here?
Result: NO

====

- Test system: SNB-19 CNS
- test summary: NCI-60 one-dose screen, 48 h (100 = growth as untreated, 0 = no growth, -100 = all killed)
- details: 10 µM unless noted
About 83,000 compounds went through this panel and 20% of them were active in at least one assay; those are over-represented in the sample as a whole. Active and inactive are the calls of the source. How the source made its calls: active means growth percent below 10; inactive means the rest.
Listing of recorded growth by entry.

Q: Query (compound): `O=[N+]([O-])c1cc(NS(=O)(=O)c2ccccc2)ccc1NS(=O)(=O)c1ccccc1` ; field requested: growth
Result: 108% (inactive)

Q: Tell me the measured growth of `CN(CCCNC(=O)CCOCCOCCOCCNC(=O)Cc1ccc2ccc3cccc4ccc1c2c34)CCCNc1cc(-c2ccc3ccccc3c2)nc2ccccc12` , please.
Result: -95.1% (active)

Q: For the compound `CN1CCN(CCOc2ccc(-c3cnc4c(-c5ccc(F)cc5)cnn4c3)cc2)CC1` , what growth is on record?
Result: 82% (inactive)

====

- Test system: MCF7 breast
- test summary: NCI-60 one-dose screen, 48 h (100 = growth as untreated, 0 = no growth, -100 = all killed)
- details: 10 µM unless noted
The panel holds about 83,000 compounds, 20% with a hit somewhere; the sample as a whole holds those more often.
Criterion: growth strictly under 20%. Met: condition met. Not met: condition not met.

Example cases with answers are listed next.
compound | test system | qualitative label
Cc1ccc(S(=O)(=O)N2CCC(=O)c3ccccc32)cc1 | MCF7 breast | condition not met
Ic1ccccc1I | MCF7 breast | condition not met
NC1(CO)COC(c2ccccc2)OC1 (configuration not stated) | MCF7 breast | condition not met
C=C1C(=O)O[C@H]2[C@H]1CC/C(COC(=O)c1cc3cc(Cl)ccc3[nH]1)=C\CC[C@@]1(C)O[C@@H]21 | MCF7 breast | condition met
Oc1ccc(/C=C/c2ccc(O)cc2)cc1 | MCF7 breast | condition not met

Q: Here's an entry: `Cc1c(Cl)cccc1C(=O)Nc1nc2c(s1)CN(C(=O)c1ccc(C(F)(F)F)cc1)CC2` . Is its growth below 20%?
Result: condition met

====

- Test system: HOP-92 NSCLC
- test summary: NCI-60 one-dose screen, 48 h (100 = growth as untreated, 0 = no growth, -100 = all killed)
- details: 10 µM unless noted
About 83,000 compounds went through this panel and 20% of them were active in at least one assay; those are over-represented in the sample as a whole.
Quick reference: growth of the listed items.
Answer with a number only, understood to be in %.

molecule | measured attribute | result number
CN(C)S(=O)(=O)Oc1ccc(-c2sc3cc(OS(=O)(=O)N(C)C)ccc3c2C(=O)c2ccc(OCCN3CCCCC3)cc2)cc1 | growth | 28.5

Q: Data request, read-out growth, for `Cn1cc(-c2csc(-c3c[nH]c4ccc(F)cc34)n2)c2ccnc(Cl)c21`
Result: 71.5

Q: Give its growth value. Item: `Cc1nnc(-c2ccc3c(c2)nc(/C=C/c2ccccc2)n3C2CCCCC2)o1`
Result: 79.7

Q: // growth lookup, key: `C/C(=N\O)c1ccc(NC(=O)CSc2nnc(-c3cc(-c4ccc(S(N)(=O)=O)cc4)nc4ccccc34)n2-c2ccccc2)cc1`
Result: 66

Q: What value of growth has been reported for the following molecule? `O=C(N/N=C/c1cc(Cl)ccc1O)c1ccccc1Nc1ccnc(C(F)(F)F)c1`
Result: 14

Q: Please give the measured growth for this molecule: COc1ccc(C2=CN3CC=CC3CC2=O)cc1 (centres undefined)
Result: 107

Q: Could you tell me which growth is on file for `O=C(Nc1ccc(Cl)cc1)Oc1c(Cl)c(Cl)c(Cl)c(Cl)c1Cl` ?
Result: 41

Q: Consider the molecule shown here: `Cc1nc2ccccc2c(/C=C/c2ccccc2)c1C(=O)/C=C/c1ccccc1` What is its recorded growth?
Result: 79.6

====

- Test system: ACHN renal
- test summary: NCI-60 one-dose screen, 48 h (100 = growth as untreated, 0 = no growth, -100 = all killed)
- details: 10 µM unless noted
This is part of a sample that, as a whole, favours compounds with a hit. Of some 83,000 tested, about 20% had one in any assay.
measured attribute: growth (%)
Quick note: give the figure in %, leave out the unit.

Reference set, count: 5
molecule | growth (%)
CN1CCN(Cc2ccc(NC(=O)c3cncc(C#Cc4cnc5ccc(Cl)nn45)c3)cc2C(F)(F)F)CC1 | 1.09
CO[C@H]1CC(=O)n2c3ccccc3c3c4c(c5c6ccccc6n1c5c32)C(=O)NC4=O | 68.1
COc1cc(OC)cc(-c2ccc(-c3ccc(C(=N)N)o3)o2)c1 | 72.6
CC1(C)N=C(N)N=C(N)N1c1cccc(CCc2ccccc2)c1 | 105
C=C1C(=O)O[C@H]2[C@H]1CC/C(COC(=O)c1ccc(C(=O)O)s1)=C\CC[C@@]1(C)O[C@@H]21 | 17.4

Q: Would you mind telling me what growth value was observed for `COc1cc(/C=C2\CN(S(=O)(=O)c3ccccc3)C/C(=C\c3cc(CN4CCCCC4)c(O)c(OC)c3)C2=O)cc(CN2CCCCC2)c1O` ?
Result: 27.9

Q: What value of growth has been recorded for this entry: `CC(=O)O[C@H]1C[C@@H]2C(C)(C)C(=O)CC[C@@]2(C)c2ccc(C(C)C)cc21`
Result: 107

Q: Can you share its growth? I mean this molecule: `CCNC(=O)Oc1ccc(/C(=C(/CC)Cc2ccccc2)c2ccc(OCCN3CCCC3)cc2)cc1`
Result: 95.1

Q: Look up growth for this molecule: CCN1C(=O)N(CC)C2Nn3c(s/c(=C\c4ccccc4Br)c3=O)=NC21 (configuration not stated)
Result: 30.5
